# PROCEDURE SUMMARY: In vitro hemolysis assay
# CONDITION INFO: human
READOUT NAME: hemolysis at 125 µg/mL (%)
Give the number; % is assumed, so skip it.

Query string: Data request, read-out hemolysis at 125 µg/mL, for COc1cc(NC(C)CCCN)c2ncccc2c1 (stereo not shown) [PQ, Primaquine]
Result string: 0
